These data points were gathered from PubChem BioAssay (NCI).

Assay: NCI Yeast Anticancer Drug Screen. Data for the cln2 rad14 strain (AID 165)
Conditions: S. cerevisiae cln2 rad14 strain, at 50.0 µM (retest, dose inferred, filed as 5.0)
Compounds without any hit were thinned out: in the full panel of roughly 79,000, 15% have a hit. The source made the active and inactive calls. Rule as the data show it: active = growth inhibition above about 70%; inactive = the rest.
// one of TRUE (active), FALSE (inactive), no free text

Please review the entries below; each comes with its answer.
1. O=C(/C=C/c1ccc(O)cc1)c1cc(Cl)ccc1O; TRUE
2. CCCC(=S)N1CCOCC1; FALSE
3. O=C(Nc1ccc(S(=O)(=O)NC2CCCCC2)cc1)OC1CCCCCCC1; TRUE
4. CCCCCCCCCCCCCCCCCC[N+](C)(C)Cc1ccc(C[N+](C)(C)CCCCCCCCCCCCCCCCCC)cc1; FALSE
5. Cc1ccc(Nc2nc3nc[nH]c3c(=O)[nH]2)cc1CO; FALSE

Just curious, what result did `COc1ccc(SC2=C(N(C)C(C)=O)C(=O)c3ccccc3C2=O)cc1` get here? TRUE

GET /call?item= COc1cc2c[n+](C)c3c4ccccc4ccc3c2cc1OC (tested in a mixture with another compound) returns the recorded outcome of this test. FALSE

Which outcome was assigned to `O=c1cc(Cl)c(Cl)nn1-c1ccccc1` in this test? FALSE

Would you mind telling me which call this test gave `CCOC(=O)/C(C)=N/Nc1cc(Cl)ccc1O` ? FALSE

Name the outcome recorded for COC(=O)C1=C(C(=O)OC)C2C(C)=CC(C)=CN2C(C(=O)OC)=C1C(=O)OC (configuration not stated) in the assay. FALSE

// return assay outcome for `CC(=O)Oc1ccc(-c2ccccc2)cc1Br` TRUE

Returns: the outcome recorded for `CNc1nc(N)nc(N(C)c2ccc(Br)cc2)c1N=O` in this assay. FALSE
